Please provide measured Tm for the entries that follow.
Protocol notes: melting temperature; melt of duplexes
Test conditions: sodium 0.0675 M; strand 1 µM
Answers are plain numbers, in °C.

Solved entries:
CGACGTGCGATATGTGCTG+CAGCACATTCGGCACGTCG ((((((((...((((((((+))))))))...)))))))) | 52.7
CGACGTGCAGAATGTGCTG+CAGCACATGTGGCACGTCG ((((((((...((((((((+))))))))...)))))))) | 51.7
CGACGTGCTGGATGTGCTG+CAGCACATGCTGCACGTCG ((((((((.(.((((((((+)))))))).).)))))))) | 54.8
CGACGTGCTATATGTGCTG+CAGCACATGTTGCACGTCG ((((((((.(.((((((((+)))))))).).)))))))) | 52.6
CGACGTGCAGTATGTGCTG+CAGCACATTCCGCACGTCG ((((((((.(.((((((((+)))))))).).)))))))) | 50.1

Each of the following entries comes with a recorded value; kindly state Tm for each.
1. CGACGTGCCGCATGTGCTG+CAGCACATTATGCACGTCG ((((((((...((((((((+))))))))...))))))))
2. CGACGTGCTCTATGTGCTG+CAGCACATGCTGCACGTCG ((((((((...((((((((+))))))))...))))))))
3. CGACGTGCACCATGTGCTG+CAGCACATGCAGCACGTCG ((((((((..(((((((((+)))))))))..))))))))

Solution:
1. 46.4
2. 47
3. 50.4

Return reported Tm values for all items listed beneath this line.
1. CGACGTGCAGGATGTGCTG+CAGCACATAGGGCACGTCG ((((((((...((((((((+))))))))...))))))))
2. CGACGTGCAGCATGTGCTG+CAGCACATCGTGCACGTCG (((((((((..((((((((+))))))))..)))))))))
3. CGACGTGCATGATGTGCTG+CAGCACATGGCGCACGTCG ((((((((...((((((((+))))))))...))))))))
4. CGACGTGCCCCATGTGCTG+CAGCACATGTTGCACGTCG ((((((((..(((((((((+)))))))))..))))))))
5. CGACGTGCTAGATGTGCTG+CAGCACATTGTGCACGTCG ((((((((...((((((((+))))))))...))))))))
6. CGACGTGCTCTATGTGCTG+CAGCACATCCCGCACGTCG ((((((((...((((((((+))))))))...))))))))
7. CGACGTGCGACATGTGCTG+CAGCACATTTGGCACGTCG ((((((((.(.((((((((+)))))))).).))))))))

Solution:
1. 50.3
2. 44.1
3. 48.1
4. 51.8
5. 48.5
6. 47.5
7. 50.6

* * *

Protocol notes: melting temperature; melt of duplexes
Test conditions: sodium 0.0675 M; strand 1 µM
I'd appreciate it if you could supply Tm values for the items below.
Answers are plain numbers, in °C.

CGACGTGCTGTATGTGCTG+CAGCACATGTCGCACGTCG ((((((((...((((((((+))))))))...)))))))) | 49.3

Record Tm for all entries; do not skip any.
1. CGACGTGCTAAATGTGCTG+CAGCACATTGCGCACGTCG ((((((((..(((((((((+)))))))))..))))))))
2. CGACGTGCACCATGTGCTG+CAGCACATCCAGCACGTCG ((((((((...((((((((+))))))))...))))))))

Solution:
1: 51.2; 2: 42.2

For every item below, please supply its Tm.
1. CGACGTGCCGCATGTGCTG+CAGCACATGTTGCACGTCG ((((((((..(((((((((+)))))))))..))))))))
2. CGACGTGCTATATGTGCTG+CAGCACATTGCGCACGTCG ((((((((...((((((((+))))))))...))))))))
3. CGACGTGCCGTATGTGCTG+CAGCACATGTCGCACGTCG ((((((((...((((((((+))))))))...))))))))

Solution:
1: 54.5; 2: 47.4; 3: 49
